- Tested on: Mycobacterium avium
- run.conditions: 104 mc'2 4
parameter.measured: MIC (mg/L)
Write the number in mg/L without appending the unit.

// below: answered molecules
molecule: CSc1ccc2c(c1)N(CCC1CCCCN1C)c1ccccc1S2 (stereo not given) [THIORIDAZINE]
parameter.measured: MIC
readout.value: 12.5
//
molecule: CCCOc1ccc(-c2cn(CCN3CCCCC3)c3ccccc3c2=O)cc1
parameter.measured: MIC
readout.value: 3.12
//
molecule: CCCOc1ccc(-c2cn(CCN3CCCCCC3)c3ccccc3c2=O)cc1
parameter.measured: MIC
readout.value: 0.39

What does the record list as MIC for CCCOc1ccc(-c2cn(CCN(CC)CC)c3ccccc3c2=O)cc1 ? 6.25

Could you do the same for CN(C)CCCN1c2ccccc2Sc2ccc(Cl)cc21 [CHLORPROMAZINE] , please? 6.25

----------
- Tested on: Mycobacterium avium
- run.conditions: isolate MAV2
- Description: Inhibition of multidrug resistance efflux pump in Mycobacterium avium isolate MAV2 assessed as potentiation of clarithromycin -induced antibacterial activity by measuring clarithromycin MIC at 1/2 MIC incubated for 3 days by MTT assay (Rvb = >1024 ug/ml)
parameter.measured: MIC (µg/mL)
Write the number in µg/mL without appending the unit.

// below: answered compounds
compound: CSc1ccc2c(c1)N(CCC1CCCCN1C)c1ccccc1S2 (stereo not given)
MIC (µg/mL): 256
--
compound: CCCOc1ccc(-c2cn(CCN3CCCCC3)c3ccccc3c2=O)cc1
MIC (µg/mL): 256

Attention now shifts to the item below.
Notebook: pull reported MIC for Mycobacterium avium, entry CCCOc1ccc(-c2cn(CCN(CC)CC)c3ccccc3c2=O)cc1 64

----------
In this section, each of the molecules is paired with its reported MIC.
- Test system: Mycobacterium avium
- run.conditions: isolate MAV1

What does the record list as MIC for CCCOc1ccc(-c2cn(CCN3CCCCCC3)c3ccccc3c2=O)cc1 ? < 4 µg/mL

Could you do the same for CCCOc1ccc(-c2cn(CCN(CC)CC)c3ccccc3c2=O)cc1 , please? 8 µg/mL

Could you do the same for CSc1ccc2c(c1)N(CCC1CCCCN1C)c1ccccc1S2 (stereo not given) [THIORIDAZINE] , please? < 4 µg/mL

Could you do the same for CCCOc1ccc(-c2cn(CCN3CCCCC3)c3ccccc3c2=O)cc1 , please? < 4 µg/mL

Could you do the same for CN(C)CCCN1c2ccccc2Sc2ccc(Cl)cc21 [CHLORPROMAZINE] , please? < 4 µg/mL

----------
- Test system: Mycobacterium avium
- run.conditions: 104
parameter.measured: MIC (µg/mL)
Write the number in µg/mL without appending the unit.

compound: CN(C)CCCN1c2ccccc2Sc2ccc(Cl)cc21
target.entity: Mycobacterium avium
parameter.measured: MIC
output.unit: µg/mL
readout.value: 64

compound: CCCOc1ccc(-c2cn(CCN3CCCCCC3)c3ccccc3c2=O)cc1
target.entity: Mycobacterium avium
parameter.measured: MIC
output.unit: µg/mL
readout.value: 8

compound: CCCOc1ccc(-c2cn(CCN(CC)CC)c3ccccc3c2=O)cc1
target.entity: Mycobacterium avium
parameter.measured: MIC
output.unit: µg/mL
readout.value: 16

Attention now shifts to the item below.
What does the record list as MIC for CSc1ccc2c(c1)N(CCC1CCCCN1C)c1ccccc1S2 (stereo not given) ? 256

----------
In this section, each of the molecules is paired with its reported MIC.
- System: Mycobacterium avium
- run.conditions: isolate MAV2

molecule: CCCOc1ccc(-c2cn(CCN(CC)CC)c3ccccc3c2=O)cc1
MIC: 6.25 mg/L

molecule: CCCOc1ccc(-c2cn(CCN3CCCCCC3)c3ccccc3c2=O)cc1
MIC: < 0.195 mg/L

molecule: CCCOc1ccc(-c2cn(CCN3CCCCC3)c3ccccc3c2=O)cc1
MIC: 3.12 mg/L

molecule: CN(C)CCCN1c2ccccc2Sc2ccc(Cl)cc21
MIC: 6.25 mg/L

Notebook: pull reported MIC for Mycobacterium avium, entry CSc1ccc2c(c1)N(CCC1CCCCN1C)c1ccccc1S2 (stereo not given) 6.25 mg/L
